- measurementTarget: T1, human PVRIG expressed on cells (human, UniProt Q6DKI7 41-326)
- T1 sequence (looked up): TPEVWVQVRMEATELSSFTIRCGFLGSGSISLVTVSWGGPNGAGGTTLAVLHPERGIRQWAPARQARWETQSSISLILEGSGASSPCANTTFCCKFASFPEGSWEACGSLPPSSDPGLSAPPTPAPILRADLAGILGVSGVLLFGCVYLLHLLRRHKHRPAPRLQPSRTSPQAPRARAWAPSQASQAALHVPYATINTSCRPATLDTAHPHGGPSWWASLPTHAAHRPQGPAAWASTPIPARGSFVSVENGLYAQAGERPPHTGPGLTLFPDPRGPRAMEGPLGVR
- assayDetails: cell-based or functional assay
Please note: NK92 killing of K562, killing activity (%), 100 nM antibody exactly at 20% is NOT MET. Only values below 20% get MET.

Sample answers from the record:
[[record]]
binder = "anti-PVRIG antibody 39 (antibody, human IgG4 S228P, F234A L235A, V domains shown, no light chain) VH: QVQLVESGGGSVQAGGSLRLSCAASRYTSRTDCMGWFRQAPGKEREGVAHIDSDGIPRYVESVKGRFTISQDHAKNTLYLQMNSLKPEDSATYYCVVGFKFGDYCAPNDWGQGTQVTVSS"
assignedcategory = "NOT MET"

[[record]]
binder = "humanized anti-PVRIG antibody 151H7 (antibody, human IgG4 S228P, F234A L235A, V domains shown) VH: HVQLVESGGGLVQPGGSLRLSCVASASGFTYRPYCMAWFRQAPGKEREAVAGIDIFGGTTYADSVKGRFTASRDNAGFSLYLQMNSLRAEDTAVYYCAAGDSPDGRCPPLGQGLNYWGQGTMVTVSS"
assignedcategory = "MET"


Lookup: Please indicate whether the reported NK92 killing of K562, killing activity (%), 100 nM antibody of humanized anti-PVRIG antibody 39H1 (antibody, human IgG4 S228P, F234A L235A, V domains shown) VH: EVQLVESGGGLVQPGGSLRLSCAASGFTFSTDCMGWFRQAPGKGLEGVAHIDSDGIPRYVESVKGRFTISRDNAKNSLYLQMNSLRAEDTAVYYCVVGFKFGDYCAPNDWGQGTMVTVSS is strictly below 20%.
Found: NOT MET

Lookup: Please indicate whether the reported NK92 killing of K562, killing activity (%), 100 nM antibody of anti-PVRIG antibody 151 (antibody, human IgG4 S228P, F234A L235A, V domains shown, no light chain) VH: HVQLVESGGGSVQAGGSLRLSCVASASGFTYRPYCMAWFRQAPGKEREAVAGIDIFGGTTYADSVKGRFTASRDNAGFSLFLQMNDLKPEDTAMYYCAAGDSPDGRCPPLGQGLNYWGQGTQVTVSS is strictly below 20%.
Found: NOT MET

Origin of values: patent US20240376207A1
